assay: Selectivity index, ratio of IC50 for human HL7702 cells to IC50 for human H460 cells; format: toxicity
log(RatioIC50): recorded values

{"Structure Smiles": "CCN1C/C(=C\\c2ccc(OC)c(OC)c2)C(=O)/C(=C/c2ccc(OC)c(OC)c2)C1", "log(RatioIC50)": 0.43}
{"Structure Smiles": "Cc1ccc2nc(NCCN)c3ncc(C)n3c2c1", "log(RatioIC50)": 0.74}
{"Structure Smiles": "CCC(=O)N1C/C(=C\\c2cc(OC)c(OC)c(OC)c2)C(=O)/C(=C/c2cc(OC)c(OC)c(OC)c2)C1", "log(RatioIC50)": 0.19}
{"Structure Smiles": "COc1cc(/C=C/C(=O)CC(=O)/C=C/c2ccc(O)c(OC)c2)ccc1O", "log(RatioIC50)": -0.07}
{"Structure Smiles": "COc1cc(/C=C2\\CN(C(=O)C(C)C)C/C(=C\\c3cc(OC)c(OC)c(OC)c3)C2=O)cc(OC)c1OC", "log(RatioIC50)": 0.79}
{"Structure Smiles": "O=C1/C(=C/c2ccccc2F)CNC/C1=C\\c1ccccc1F", "log(RatioIC50)": 0.63}
{"Structure Smiles": "CCCN1C/C(=C\\c2ccc(OC)c(OC)c2)C(=O)/C(=C/c2ccc(OC)c(OC)c2)C1", "log(RatioIC50)": 0.71}
{"Structure Smiles": "COc1cc(/C=C2\\CN(C(=O)c3ccccc3F)C/C(=C\\c3cc(OC)c(OC)c(OC)c3)C2=O)cc(OC)c1OC", "log(RatioIC50)": 0.47}
{"Structure Smiles": "COc1ccc(/C=C2\\CN(C)C/C(=C\\c3ccc(OC)c(OC)c3)C2=O)cc1OC", "log(RatioIC50)": 0.77}

* * *

test: Selectivity index, ratio of IC50 for human HL7702 cells to IC50 for human NCI-H1650 cells; format: toxicity
# log(RatioIC50) annotations

{"Molecule": "COc1ccc(/C=C2\\CN(C)C/C(=C\\c3ccc(OC)c(OC)c3)C2=O)cc1OC", "log(RatioIC50)": 0.31}
{"Molecule": "COc1cc(/C=C2\\CN(C(=O)c3ccccc3F)C/C(=C\\c3cc(OC)c(OC)c(OC)c3)C2=O)cc(OC)c1OC", "log(RatioIC50)": 0.36}
{"Molecule": "Cc1ccc2nc(NCCN)c3ncc(C)n3c2c1 [BMS-345541]", "log(RatioIC50)": 0.22}
{"Molecule": "O=C1/C(=C/c2ccccc2F)CNC/C1=C\\c1ccccc1F", "log(RatioIC50)": 0.48}
{"Molecule": "COc1ccc(/C=C2\\CNC/C(=C\\c3ccc(OC)c(OC)c3)C2=O)cc1OC", "log(RatioIC50)": -0.04}
{"Molecule": "CCC(=O)N1C/C(=C\\c2cc(OC)c(OC)c(OC)c2)C(=O)/C(=C/c2cc(OC)c(OC)c(OC)c2)C1", "log(RatioIC50)": -0.02}
{"Molecule": "COc1cc(/C=C2\\CNC/C(=C\\c3cc(OC)c(OC)c(OC)c3)C2=O)cc(OC)c1OC", "log(RatioIC50)": 0.26}
{"Molecule": "CCN1C/C(=C\\c2ccc(OC)c(OC)c2)C(=O)/C(=C/c2ccc(OC)c(OC)c2)C1", "log(RatioIC50)": -0.09}
{"Molecule": "CCCN1C/C(=C\\c2ccc(OC)c(OC)c2)C(=O)/C(=C/c2ccc(OC)c(OC)c2)C1", "log(RatioIC50)": 0.12}
